From: ChEMBL document CHEMBL1153915

Below is a list of entries, each paired with its recorded logD value.
- method: Distribution coefficient, log D in octanol/phosphate buffer at pH 7.4 by shaking flask method
- Assay type: physicochemical
testReadout: logD

CN(Cc1ccccc1)C(=O)Cn1c(=O)n(CCF)c2cnc(-c3ccccc3)nc21; 3.2
CCC(C)N(C)C(=O)c1cc2ccccc2c(-c2ccccc2Cl)n1 (stereo unspecified); 3.7
COc1ccc(OCCF)c(CN(C(C)=O)c2cc(F)ccc2Oc2ccccc2)c1; 3.8
Cn1c(=O)n(CC(=O)N(CCF)Cc2ccccc2)c2nc(-c3ccccc3)ncc21; 3.1
CCN(Cc1ccccc1)C(=O)Cn1c(=O)n(CCF)c2cnc(-c3ccccc3)nc21; 3.6
CCN(Cc1ccccc1)C(=O)Cn1c(=O)n(C)c2cnc(-c3ccccc3)nc21; 3.3

====

- targetOfAssay: Translocator protein (Rattus norvegicus, UniProt P16257)
- Sequence (P16257 whole entry, looked up): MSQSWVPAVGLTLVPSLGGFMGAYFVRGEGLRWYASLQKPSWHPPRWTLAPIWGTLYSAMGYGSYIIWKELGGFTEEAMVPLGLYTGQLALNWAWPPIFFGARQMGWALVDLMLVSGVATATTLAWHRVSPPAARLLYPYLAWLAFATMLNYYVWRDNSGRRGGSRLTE
- method: Displacement of [11C]PK11195 from PBR receptor in rat brain membrane
- Format: cell membranes
pKi: −log10 of the molar value.
We begin with a simple list: items and their reported pKi.
testReadout: pKi

Cn1c(=O)n(CC(=O)N(CCF)Cc2ccccc2)c2nc(-c3ccccc3)ncc21; 9.29
CCN(Cc1ccccc1)C(=O)Cn1c(=O)n(C)c2cnc(-c3ccccc3)nc21; 9.70
CN(Cc1ccccc1)C(=O)Cn1c(=O)n(CCF)c2cnc(-c3ccccc3)nc21; 8.87
CCN(Cc1ccccc1)C(=O)Cn1c(=O)n(CCF)c2cnc(-c3ccccc3)nc21; 9.31

====

- method: Displacement of [11C]flumazenil from CBR receptor in rat brain membrane
- Format: cell membranes
Below, each of the compounds is paired with its reported Ki value.
testReadout: Ki

CCC(C)N(C)C(=O)c1cc2ccccc2c(-c2ccccc2Cl)n1 (stereo unspecified); > 8.4 µM
COc1ccc(OCCF)c(CN(C(C)=O)c2cc(F)ccc2Oc2ccccc2)c1; > 1 µM
CN(Cc1ccccc1)C(=O)Cn1c(=O)n(CCF)c2cnc(-c3ccccc3)nc21; 8.4 µM
CCN(Cc1ccccc1)C(=O)Cn1c(=O)n(CCF)c2cnc(-c3ccccc3)nc21; > 8.4 µM
Cn1c(=O)n(CC(=O)N(CCF)Cc2ccccc2)c2nc(-c3ccccc3)ncc21; > 8.4 µM
CCN(Cc1ccccc1)C(=O)Cn1c(=O)n(C)c2cnc(-c3ccccc3)nc21; > 8.4 µM

====

- targetOfAssay: Translocator protein (Rattus norvegicus, UniProt P16257)
- method: Displacement of [11C]DAA1106 from PBR receptor in rat brain membrane
- Type: cell membranes
testReadout: Ki

COc1ccc(OCCF)c(CN(C(C)=O)c2cc(F)ccc2Oc2ccccc2)c1; 0.08 nM
